All figures here come from PubChem BioAssay (NCATS).

system tested: 3',5'-cyclic-AMP phosphodiesterase 4B (Homo sapiens)
assay details: qHTS Assay for Inhibitors of PDE-IV (AID 607)
settings: HEK293 ACTOne CNG channel cells, membrane potential fluorescence; series mostly up to 22.9 µM
Records with an inconclusive call do not appear. The source made the active and inactive calls. Calls follow the shape of the dose curve; as a rule, active = well fitted activation curve with a large enough effect in the main read-out, with a control signal flat (not every such curve was filed as active); inconclusive = small, poorly fitted or top-dose-only effect, or effect the other way, or a change in a side signal; inactive = flat fitted curve, though single readings scatter.
metric name: outcome

Cc1cc(CNC(=O)[C@H](C)[C@@H]2C[C@@]2(C)[C@@H](NC(=O)OCc2ccccc2)c2ccccc2)nn1C = inactive
C[C@@H](C(=O)Nc1ccc2ccccc2c1)[C@H]1C[C@]1(C)[C@H](NC(=O)c1cccnc1)c1ccccc1 = inactive
COC(=O)[C@@]1(Cc2ccc(F)cc2)[C@H]2c3cc(C(=O)N4CCCC4)n(CCc4ccccn4)c3C[C@H]2CN1C(=O)c1ccccc1 = inactive
C[C@@H](C(=O)NCC1CC1)[C@@H]1C[C@@]1(C)[C@@H](NC(=O)OCc1ccccc1)c1ccccc1 = inactive
O=C(NCc1ccccn1)[C@H]1C[C@@H]1[C@H](NP(=O)(c1ccccc1)c1ccccc1)c1ccccc1 = inactive

Report outcome for each item below.
1. COC(=O)[C@@]1(Cc2ccc(OC)cc2)[C@H]2c3cc(C(=O)N4CCCC4)n(Cc4cc(F)c(F)c(F)c4)c3C[C@H]2CN1C(=O)c1ccccc1
2. COC(=O)[C@@]1(Cc2ccc(OC)cc2)[C@H]2c3cc(C(=O)N4CCCC4)n(Cc4cc(C)n(C)n4)c3C[C@H]2CN1C(=O)c1ccccc1
3. O=C(NCc1ccccn1)[C@@H]1C[C@H]1[C@@H](NP(=O)(c1ccccc1)c1ccccc1)c1ccccc1
4. COC(=O)[C@@]1(Cc2ccccc2)[C@H]2c3cc(C(=O)N4CCCC4)[nH]c3C[C@H]2CN1C(=O)c1ccccc1
5. COC(=O)[C@@]1(Cc2ccc(F)cc2)[C@H]2c3cc(C(=O)N4CCCC4)n(Cc4ccc(C(F)(F)F)nc4)c3C[C@H]2CN1C(=O)c1ccccc1
6. COC(=O)[C@@]1(Cc2ccccc2)[C@H]2c3cc(C(=O)N(C)C)n(Cc4ccc(S(C)(=O)=O)cc4)c3C[C@H]2CN1C(=O)c1ccccc1
7. O=C(NCC1CC1)[C@H]1C[C@@H]1[C@H](NP(=O)(c1ccccc1)c1ccccc1)c1ccccc1
8. COC(=O)[C@@]1(Cc2ccc(OC)cc2)[C@H]2c3cc(C(=O)N4CCCC4)n(Cc4ccc(O)c(OC)c4)c3C[C@H]2CN1C(=O)c1ccccc1

1: inactive; 2: inactive; 3: inactive; 4: inactive; 5: inactive; 6: inactive; 7: inactive; 8: inactive

Report outcome for each item below.
1. COc1ccc(NC(=O)CCCCC#Cc2ccccc2)cc1
2. COC(=O)[C@@]1(Cc2ccc(F)cc2)[C@H]2c3cc(C(=O)N(C)C)n(CCc4ccc(OC)c(Br)c4)c3C[C@H]2CN1C(=O)c1ccccc1
3. COC(=O)[C@@]1(Cc2ccc(OC)cc2)[C@H]2c3cc(C(=O)N(C)C)n(Cc4ccccc4)c3C[C@H]2CN1C(=O)c1ccccc1
4. COC(=O)[C@@]1(Cc2ccc(OC)cc2)[C@H]2c3cc(C(=O)N(C)C)n(CCSCCO)c3C[C@H]2CN1C(=O)c1ccccc1
5. COC(=O)[C@@]1(Cc2ccc(F)cc2)[C@H]2c3cc(C(=O)N4CCCC4)n(CCSCCO)c3C[C@H]2CN1C(=O)c1ccccc1
6. C/C(=C\C1CCCCC1)C(NC(=O)c1cccnc1)c1ccc(-c2ccccc2)cc1 (centres undefined)
7. Cc1ccc(CNC(=O)[C@H](C)[C@H]2C[C@]2(C)[C@H](NC(=O)OCc2ccccc2)c2ccccc2)c(F)c1F
8. COC(=O)[C@@]1(Cc2ccccc2)[C@H]2c3cc(C(=O)N(C)C)n(C[C@H](O)CO)c3C[C@H]2CN1C(=O)c1ccccc1

1: inactive; 2: inactive; 3: inactive; 4: inactive; 5: inactive; 6: inactive; 7: inactive; 8: inactive
